- Assay text: yeast display, Sf9 membrane polyspecificity reagent, FACS + sequencing; frameworks hold sequencing errors
Value kind: polyreactivity (PSR sort gate)

QVQLVESGGGLVQAGGSLRLSCAASGSIFYPYAMGWYRQAPGKEREWVATITLSGGRTYYADSVKGRFTISRDNAKNTVYLQMNSLKPEDTAVYYCATDYAYGAFLYDYWGQGTQVTVSS
low polyreactivity
QVQLVESGGGLVQAGGSLRLSCAASGSIFPGYAMGWYRQAPGKERELVATITWSGGSTYYADSVKGRFTISRDNAKNTVYLQMNSLKPADTAVYYCNADSNWYYQWNYYGLYDYWGQGTQVTVSS
low polyreactivity

* * *

- Assay text: yeast display, Sf9 membrane polyspecificity reagent, FACS + sequencing; frameworks hold sequencing errors
Value kind: polyreactivity (PSR sort gate)

Study these solved cases before continuing.
QVQLVESGGGLVQAGGSLRLSCAASGFIFGDYAMGWYRQAPGKERELVAAISRSGGRTYYADSVKGRFTISRDNAKNTVYLQMNSLKPEDTAVYYCAKSSLNIYEYWGQGTQVTVSS
high polyreactivity
QVQLVESGGGLVQAGGSLRLSCAASGFTIERNAMGWYRQAPGKERELVATISQSGTNTYYADSVKGRFTISRDNAKNTVYLQMNSLKPEETAVYYCNARDIFYRYDYWGQGTLVTVSS
low polyreactivity
QVQLVESGGGLVQAGGSLRLSCAASGTTFSRYAMGWYRQAPGKEREFVAAISRRAGGTYYADSVKGRFTISRDNAKNTVYLQMNSLKPEDTAVYYCAKVLPRDYIGRATYDYWGQGTQVTVSS
high polyreactivity
QVQLVESGGGLVQAGGSLRLSCAAYGYTFRYNAMGWYRQAPGKERELVATITRGGSTNYADSVKGRFTISRDNAKNTVYLQMNSLKPEDTAVYYCNKEAAPRGFVPSYYGRDYWGQGTQVTVSS
low polyreactivity

Turning to the following sequence.
Quick check: polyreactivity (PSR sort gate) of `QVQLVESGGGLVQAGGSLRLTCAASGRIFPYYAMGWYRQAPGKEREFVAAITSSGSRTYYADSVKGRFTISRDNAKNNVYLQMNSLKPEDTAVYYCAVAYRLLYYYWGQGTQVTVSS` ?
high polyreactivity

* * *

- Assay text: yeast display, Sf9 membrane polyspecificity reagent, FACS + sequencing; frameworks hold sequencing errors
Value kind: polyreactivity (PSR sort gate)

QVQLVESGGGLVQAGGSHRLSCAASGITFARYAIGWSRQAPGKEREFLAAISWSGGNTYYADSVKGRFTISRDYAKNTVYLQLNSLKTEDTAVYYCAAESKGSWRYYYRFYYWGQGTQVTVSS
high polyreactivity
QVQLVESGGGLVQAGGSLRLSCAASGLIFRFYAMGWYRQAPGKERELVAAISGGGGSTYYADSVKGRFTISRDNAKNTVYFQMNSLKPEDTAVYYCNTVNDKRAYGKMGYWGQGTQVTVSS
high polyreactivity
QVQLVESGGGLVQAGGSLRLSCAASGSIITVNAMGWYRQAPGKEREFVAGITSIGGRTYYADSVKGRFTISRDNAKNTDYLQMNSLKPEDTAVYDCNKRTYRARYDYWGQGTQVTVSS
high polyreactivity

* * *

- Assay text: yeast display, Sf9 membrane polyspecificity reagent, FACS + sequencing; frameworks hold sequencing errors
Value kind: polyreactivity (PSR sort gate)

QVQLVESGGGLVQAGGSLRLSCAASGFTFYLNAMGWYRQAPGKERELVAAISYSDGSTYYADSVKGRFTISRDNAKNTVYFQMNSLKPEDSAVYYCDADTTDPGGAFQLKDYWGQGTQVTVSS
high polyreactivity
QVQLVESGGGLVQAGGSLRLSCADSGFTFYRYARGWYRQAPGKERELVADITSGGSTNYADSVKGRFTISRDNAKNTVYLQMNSLKPEDTAVYYCNADRWYGSVYRYGYWGQGTQVTVSS
high polyreactivity

* * *

- Assay text: yeast display, Sf9 membrane polyspecificity reagent, FACS + sequencing; frameworks hold sequencing errors
Value kind: polyreactivity (PSR sort gate)

Study these solved cases before continuing.
QVQLVESGGGLVQAGGSHRLSCAASGRIFFPYDMGWYRQAPGKDRELVAAITNSGGRTYYADSVKGRFTISRDNAKNTVYLQMNSLKPEDSAVYYCAAEYVSAKWEYGYWGQGTQVTVSS
low polyreactivity
QVQLVESGGGLVQAGGSLRLTCAASGSTFPVYAMGWSRQAPGKERELVASISSGADTIYADSVKGRFTISRDNAKNTVYLQMNSLKPEDTSVYYCAVYRPGLTYYDYDYWGQGTQVTVSS
low polyreactivity
QVQLVESGGGLVQAGGSLRLSCAASGFIFYWYVMGWYRQAPGKERELVAGISKNGTNTYYADSVKGRFTISRDNAKNTVYLQMNSLKPEDTAVYYCAARGYIRSRHYLEGYWGQGTQVTVSS
high polyreactivity
QVQLVESGGGLVQAGGSLRLSCAASGSIFRVYAMGWYRQAPGKERELVASISRRGGSTYYADSVKGRFTISRDNAKNTVYLQMNSLKPEDTAVYYCAAEFVIGGHGYDYWGQGTQVTVSS
high polyreactivity

Turning to the following sequence.
Quick check: polyreactivity (PSR sort gate) of `QVQLVESGGGLVQAGGSLRLSCAASGSIFVRNGMGWYRQAPGKERELVASFTSGTITYYADSVKGRFTISRDNARNTVYLQMNRLKPDDTAVYYCAARRDRGRVKFYYWGQGTQVTVSS` ?
high polyreactivity

* * *

- Assay text: yeast display, Sf9 membrane polyspecificity reagent, FACS + sequencing; frameworks hold sequencing errors
Value kind: polyreactivity (PSR sort gate)

QVQLVESGGGLVQAGGSLRLSCAASGRIYNPNGMGWYRQAPGKERELVAVITRSGTSTYYADSVKGRFTISRDNAKNTVYLQMNSLKPEDTAVYYCNAGKKYVDYGGPSSRYYWGQGTQVTVSS
low polyreactivity
QVQLVESGAGLVQAGVSLRLSCAASGRTFRSNAMGWYRQAPGKERELVAAISWSGGSTYYADSVKGRFTISRDNAKNTVYLQMNSLKPEDTAVYDCAVGGSGYGRFGGGYARDYWGQGTLVTVSS
high polyreactivity
QVQLVESGGGLVQAGGSLRLSCAASGSTFGYYTKGWYRQAPGKERELVAAITWSGGSTYYADSVKGRFTISRDNAKNTVYLQMNSLKPEDTAVYYCAADDYWTPFGYWGQGTQVTVSS
low polyreactivity
QVQLVESGGGLVQAGGSLRLSCAASGFTFWYYAMGWYRQAPGKERELVATISRGGGSTYYADSVKGRFTISRDNAKNTVYLQMNSLKPEDTEVYYCNAVRVHAYSTGEYGYWGQGTQVTVSS
high polyreactivity

Turning to the following sequence.
Quick check: polyreactivity (PSR sort gate) of `QVQLVESGGGLVQAGGSLRLSCAASGRIFDPYAMGGYRQAPGKERELVANITLRGGITYYADSVKGRFTISRDNAKNTVYLQMNSLKPEDTAVYDCNADGYPDVGAGTYGYWGQGTQVTVSS` ?
low polyreactivity

* * *

- Assay text: yeast display, Sf9 membrane polyspecificity reagent, FACS + sequencing; frameworks hold sequencing errors
Value kind: polyreactivity (PSR sort gate)

QVQLVESGGGLVQAGGSLRLSCAASGITLVFNAMGWYRQAPGKERELVAAITSGGITNYADSVKGRFTISRDNAKNTVYLQMNSLKPEDTAVYYCATDYGYFHYPWCPLWGYEYWGQGTQVTVSS
low polyreactivity
QVQLVESGGGVVQAGGSLRLSCAASGSTFLLYDMGWYRQAPGKERELVARISSGDSTNYADSVKGRFTISRDNAKNTVYLLMNSLIPEDTAVYYCAAEGGVQEFDYWGQGTQVTVSS
low polyreactivity
QDQLVESGVGLVQAGGSLRLSCAASGRTFYYNTMGWYRPAPGKETEFVATITSTHDTNYADSVKGRFTISRDNAKNSVYLQMNSLKPEDTAVYYCAKGYLNYGRDWDFDYWGHGTQVTVSS
low polyreactivity

* * *

- Assay text: yeast display, Sf9 membrane polyspecificity reagent, FACS + sequencing; frameworks hold sequencing errors
Value kind: polyreactivity (PSR sort gate)

Study these solved cases before continuing.
QVQLVESGGGLVQAGGSLRLSCAASGFIFYRNTMGWYRQAPGKEREFVAAIRWRGGSTYYADSVKGRFTISRDNAKNTVYLQMNSLKPEDTAVYYCAADTRPGYSGFEYWGQGTQVTVSS
high polyreactivity
QVQLVESGGVLVQARGILRLICAASGSTFSFNDMGWYRQAPGKERELVAAISRGDNTYYADSVKGRFTISRDNAKNTVYLQMNSLKPDDTSVYYCAADYTYGPPYGYNYWGQGTQVTVSS
low polyreactivity
QVQLVESGGGLVQAGGSLRLSCAASGIIFSSYAMGWYRQAPGKERELVAAITYNGGRTYYADSVKGRFTISRDNAKNTVYLQMNSLKPEDTAVYYCAARTYGGNVLRLDYWGQGTQVTVSS
high polyreactivity
QVKLQESGGSHVQAGGSLRLSCAASGFIFARNYIGWYRQAPCKERELVAGIGVRASTNYADSDKGRFTISRDNAKNSVYLQMNSLEPEDTAVYYCAVGDTVLGYHYYWGQGTQVTVSN
low polyreactivity

Quick check: polyreactivity (PSR sort gate) of `QVQNVESGRGLVQAGGSLRISCAASGDYAMGWSIQAPGTERELVAAISRRGGSTYYADSVKGRFTISRDNAKNTVYLQMNSLKQDDTAVYSCAADYSSRNRGNRYRLDYWGQGTQVTVSS` ?
high polyreactivity
